biological target: human DGKα (Homo sapiens (Human), UniProt P23743); assay: DGKα LIPGLO assay (extruded liposome substrate); type: biochemical
Sequence (P23743 other isoform, or with tags, fused parts or gaps): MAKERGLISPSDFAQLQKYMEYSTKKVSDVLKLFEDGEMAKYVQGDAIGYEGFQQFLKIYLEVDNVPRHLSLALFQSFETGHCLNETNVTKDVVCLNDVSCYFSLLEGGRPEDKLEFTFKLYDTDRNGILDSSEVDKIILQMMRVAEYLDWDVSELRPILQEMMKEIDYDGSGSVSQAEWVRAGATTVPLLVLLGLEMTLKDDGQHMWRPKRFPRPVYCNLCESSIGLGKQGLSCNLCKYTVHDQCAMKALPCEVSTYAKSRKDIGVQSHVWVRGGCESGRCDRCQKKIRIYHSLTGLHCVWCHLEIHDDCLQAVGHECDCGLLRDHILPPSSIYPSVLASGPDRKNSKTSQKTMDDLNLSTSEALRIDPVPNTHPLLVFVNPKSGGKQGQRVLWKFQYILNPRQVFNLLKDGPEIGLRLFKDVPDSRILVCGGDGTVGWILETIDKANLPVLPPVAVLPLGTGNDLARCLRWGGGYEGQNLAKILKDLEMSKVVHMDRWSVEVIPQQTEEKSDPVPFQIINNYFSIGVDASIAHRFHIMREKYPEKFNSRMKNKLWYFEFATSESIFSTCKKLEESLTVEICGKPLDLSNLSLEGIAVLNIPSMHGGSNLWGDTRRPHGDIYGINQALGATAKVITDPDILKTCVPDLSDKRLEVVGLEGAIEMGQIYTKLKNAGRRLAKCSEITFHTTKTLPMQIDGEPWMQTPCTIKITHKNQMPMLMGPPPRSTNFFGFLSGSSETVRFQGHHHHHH
pIC50: −log10 of the molar value.
Tick Yes if pIC50 is 6 or greater. Tick No if pIC50 is less than 6.

Look over these answered cases.
Is pIC50 for Cc1ccc2c(n1)c(N1CCN(C(C)c3ccc(F)cc3)CC1)c(Br)c(=O)n2C (stereo not shown) at or above 6?
Yes

Textbook exercise: given the entry COc1ccc2c(n1)c(N1CCN(C(c3ccc(F)cc3)c3ccc(F)cc3OC)CC1)c(C#N)c(=O)n2C (single isomer, unassigned) [Example 413] , state whether its pIC50 is greater than or equal to 6.
No

Textbook exercise: given the entry `C#CCn1c(=O)c(C#N)c(N2CCN(Cc3ccccc3O)CC2)c2nc(Br)ccc21` , state whether its pIC50 is greater than or equal to 6.
Yes

State whether the measured pIC50 reaches 6, counting equality as reaching it, for `Cn1c(=O)c(C#N)c(N2CCN(C(c3ccccc3)c3ccccc3)CC2)c2nc(Cl)ccc21`
No

Others:
Would you say `Cn1c(=O)cc(N2CCN(C(c3ccc(F)cc3)c3ccc(F)cc3)CC2)c2nc(C#N)ccc21` shows pIC50 at minimum 6?
No

Please indicate if the recorded pIC50 for COc1cc(F)ccc1C(c1ccc(F)cc1)N1CCN(c2c(C#N)c(=O)n(C)c3ccc(Br)nc23)CC1 (single isomer, unassigned) [Example 17] meets or exceeds 6.
No

Please tell me: is the compound COc1ccc2c(n1)c(N1CCN(C(c3ccc(F)cc3)c3cccnc3OC)CC1)c(C#N)c(=O)n2C (stereo not shown) at or over 6 in terms of pIC50?
No

Test whether the compound COc1cc(F)ccc1C(c1ccc(F)cc1)N1CCN(c2c(C#N)c(=O)n(C)c3ccc(C#N)nc23)CC1 (racemic) [Example 405] records pIC50 of 6 or higher.
Yes

Reported pIC50 reaches at least 6 for `Cn1c(=O)c(C#N)c(N2CCN(Cc3ccc(F)cc3Cl)CC2)c2nc(Cl)ccc21` ?
No

Could you tell me if the measured pIC50 of `Cn1c(=O)c(C#N)c(N2CCN(C(c3ccc(Cl)cc3)c3ccc(Cl)cc3)CC2)c2nc(C#N)ccc21` reaches 6 or more?
No

Does `Cc1ccc2c(n1)c(N1CCN(C(c3ccc(F)cc3)c3ccc(F)cc3)CC1)c(Cl)c(=O)n2C` have a reported pIC50 of at least 6?
No

Check this compound for pIC50 at or above 6: CC(c1ccc(F)cc1)N1CCN(c2c(C#N)c(=O)n(CC3CC3)c3ccc(Br)nc23)CC1 (single isomer, unassigned) [Example 164]
No

// inclusive: pIC50 at least 6? input: `C#CCn1c(=O)c(C#N)c(N2CCN(Cc3ccc(C)cc3O)CC2)c2nc(Br)ccc21`
Yes

Does pIC50 meet or surpass 6 for `C#CCn1c(=O)c(C#N)c(N2CCN(C(c3ccc(F)cc3)c3ccc(F)cc3)CC2)c2nc(Br)ccc21` ?
No

====

target: human DGKζ (Homo sapiens (Human), UniProt Q13574); test: DGKζ assay (detergent/lipid micelle substrate); assay type: biochemical; conditions: detergent/lipid micelle substrate; read-out: DGKζ IC50
Sequence (Q13574 other isoform, or with tags, fused parts or gaps): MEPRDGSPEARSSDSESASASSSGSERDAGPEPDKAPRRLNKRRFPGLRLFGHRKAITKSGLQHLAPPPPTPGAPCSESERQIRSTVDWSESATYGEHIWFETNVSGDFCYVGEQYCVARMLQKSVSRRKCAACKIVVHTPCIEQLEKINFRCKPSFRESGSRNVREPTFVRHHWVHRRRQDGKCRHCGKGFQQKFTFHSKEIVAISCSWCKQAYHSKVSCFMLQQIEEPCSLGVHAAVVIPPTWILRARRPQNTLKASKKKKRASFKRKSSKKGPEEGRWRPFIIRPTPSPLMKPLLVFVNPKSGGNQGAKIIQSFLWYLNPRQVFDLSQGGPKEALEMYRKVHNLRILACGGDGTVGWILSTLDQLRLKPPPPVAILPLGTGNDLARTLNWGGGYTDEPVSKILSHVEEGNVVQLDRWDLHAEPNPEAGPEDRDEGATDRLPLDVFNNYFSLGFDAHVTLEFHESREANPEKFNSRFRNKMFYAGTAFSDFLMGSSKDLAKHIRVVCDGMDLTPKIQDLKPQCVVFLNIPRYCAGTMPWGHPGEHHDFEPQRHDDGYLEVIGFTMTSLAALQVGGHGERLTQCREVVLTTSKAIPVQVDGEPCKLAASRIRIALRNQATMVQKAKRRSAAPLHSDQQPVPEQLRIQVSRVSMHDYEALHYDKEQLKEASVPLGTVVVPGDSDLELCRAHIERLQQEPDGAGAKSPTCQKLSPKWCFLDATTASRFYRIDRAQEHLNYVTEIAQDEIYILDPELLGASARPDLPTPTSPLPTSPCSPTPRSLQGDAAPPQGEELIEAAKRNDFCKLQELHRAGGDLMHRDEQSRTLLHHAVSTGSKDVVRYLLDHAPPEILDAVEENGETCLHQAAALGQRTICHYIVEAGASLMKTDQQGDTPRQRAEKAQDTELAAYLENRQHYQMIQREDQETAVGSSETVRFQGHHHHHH
Measured Property: pIC50
# log scale: pIC50 equals minus log10 of the concentration in mol/L

Examples from the recorded data:
Item: COc1ccc(CN2CCN(c3c(C#N)c(=O)n(C)c4ccc(Br)nc34)CC2)c(O)c1 [Example 295] | pIC50: 4.26

Given item C#CCn1c(=O)c([N+](=O)[O-])c(N2CCN(C(c3ccc(F)cc3)C3CC3)CC2)c2nc(C#N)ccc21 (single isomer, unassigned) [Example 144] , the value recorded as its pIC50 is 5.10

Form: molecule = Cn1c(=O)c(C#N)c(N2CCN(Cc3c(O)cccc3Br)CC2)c2nc(Cl)ccc21 [Example 258] ; pIC50 = 4.59

Field: next molecule
Value of measured pIC50 for the entry C#CCn1c(=O)c([N+](=O)[O-])c(N2CCN(C(c3ccccc3)c3ccccc3)CC2)c2ncccc21 [Example 165] : 4.04

====

Molecular target: UniProt Q13574
Assay: DGKζ LIPGLO assay (extruded liposome substrate)
Format: biochemical
Settings: extruded liposome substrate; read-out: DGKζ LIPGLO IC50
Method: The DGKα and DGKζ reactions were performed using either extruded liposome (DGKα and DGKζ LIPGLO assays) or detergent/lipid micelle substrate (DGKα and DGKζ assays). The reactions were carried out in 50 mM MOPS pH 7.5, 100 mM NaCl, 10 mM MgCl2, 1 μM CaCl2, and 1 mM DTT (assay buffer). The reactions using a detergent/lipid micelle substrate also contained 50 mM octyl B-D-glucopyranoside. […]
Entries and their measured IC50 follow.
Give the number; µM is assumed, so skip it.

Worked examples, 5 molecules total:
// `Cc1ccc2c(n1)c(N1CCN(C(c3ccc(F)cc3)c3ccc(F)cc3)CC1)c(Cl)c(=O)n2C` : IC50 value = 6.6

Just so you know, measured IC50 for `Cc1ccc2c(n1)c(N1CCN(Cc3cccc(F)c3O)CC1)c(C#N)c(=O)n2C` came out at 49

// field: IC50; key: `Cn1c(=O)c(C#N)c(N2CCN(Cc3cccc4ccccc34)CC2)c2nc(C#N)ccc21` ; value = 3.9

Short answer for `COc1ccc2c(n1)c(N1CCN(C(c3ccc(F)cc3)c3ccc(F)cc3)CC1)c(C#N)c(=O)n2C` : IC50 was 0.99

In plain terms, `Cn1c(=O)c(C#N)c(N2CCN(Cc3ccccc3Cl)CC2)c2nc(Br)ccc21` has a documented IC50 of 98

Others:
Entry `Cn1c(=O)c([N+](=O)[O-])c(N2CCN(Cc3cccc4ccccc34)CC2)c2nc(Br)ccc21` ; IC50 = 1.8

====

target: human DGKζ (Homo sapiens (Human), UniProt Q13574); test: DGKζ LIPGLO assay (extruded liposome substrate); type: biochemical; conditions: extruded liposome substrate; read-out: DGKζ LIPGLO IC50
With a cut-off of 10 µM, any IC50 strictly below it is called MET; any IC50 meeting it or above is called NOT MET.

Take a look at these entries with their results.
Consider `Cn1c(=O)c(C#N)c(N2CCN(C(c3ccccc3)c3ccccc3)CC2)c2nc(Cl)ccc21` . Does its IC50 lie strictly below 10 µM?
NOT MET

Here's an entry: `Cn1c(=O)c(C#N)c(N2CCN(C(C)(C)c3ccc(F)cc3)CC2)c2nc(Cl)ccc21` . Is its IC50 below 10 µM?
NOT MET

Please check: IC50 for C#CCn1c(=O)c([N+](=O)[O-])c(N2CCN(C(CC)c3ccc(F)cc3)CC2)c2nc(C#N)ccc21 (single isomer, unassigned) [Example 140] , strictly under 10 µM or not?
MET

Given the entry `Cn1c(=O)c(C#N)c(N2CCN(Cc3ccc(Cl)c(O)c3)CC2)c2nc(Cl)ccc21` , would its reported IC50 be below 10 µM?
NOT MET

***
I wonder whether COc1ccc2c(n1)c(N1CCN(C(c3ccc(F)cc3)c3cccnc3OC)CC1)c(C#N)c(=O)n2C (centres unmarked) has IC50 below 10 µM. Can you tell?
MET

State whether 10 µM exceeds IC50 recorded for `C#CCn1c(=O)c(C#N)c(N2CCN(Cc3ccc(F)cc3O)CC2)c2nc(Br)ccc21` .
NOT MET

I'd appreciate it if you could check whether `Cn1c(=O)c(C#N)c(N2CCN(C(c3ccc(F)cc3)c3ccc(F)cc3)CC2)c2nc(Cl)ccc21` has IC50 smaller than 10 µM.
MET

====

# IC50 per record follows
target: human DGKα (Homo sapiens (Human)); assay: DGKα LIPGLO assay (extruded liposome substrate); assay type: biochemical
Give just the number in nM; leave the unit off.

Field: example entries. Status: answers known.
// IC50 lookup, compound = Cn1c(=O)c(C#N)c(N2CCN(C(c3ccc(F)cc3)C3CCC3)CC2)c2nc(Cl)ccc21 (single isomer, unassigned) [Example 382] , result: 760

Item: `Cn1c(=O)c(C#N)c(N2CCN(C(c3ccc(F)cc3)c3ccc(F)cc3)CC2)c2nc(Cl)ccc21` | IC50: 1500

Next:
Looking up CC(C)C(c1ccc(F)cc1)N1CCN(c2c(C#N)c(=O)n(C)c3ccc(Cl)nc23)CC1 (single isomer, unassigned) [Example 316] , I found its IC50 recorded as 250

So for COc1cc(F)ccc1C(c1ccc(F)cc1)N1CCN(c2c(C#N)c(=O)n(C)c3ccc(C#N)nc23)CC1 (single isomer, unassigned) [Example 406] , the logged IC50 turned out to be 13000

Recorded result, `Cn1c(=O)c([N+](=O)[O-])c(N2CCN(Cc3cccc4ccccc34)CC2)c2nc(C#N)ccc21` , IC50: 650

Lookup result for `COc1ccc(CN2CCN(c3c(C#N)c(=O)n(C)c4ccc(Cl)nc34)CC2)cc1F` ; measured IC50: 810

The reported IC50 of the compound `Cn1c(=O)c(C#N)c(N2CCN(Cc3cc(Br)ccc3O)CC2)c2nc(Cl)ccc21` was 770

For this compound ( `Cc1ccc(CN2CCN(c3c(C#N)c(=O)n(C)c4ccc(Cl)nc34)CC2)c(O)c1` ), measured IC50 is 82

Record summary for `Cn1c(=O)c(C#N)c(N2CCN(Cc3ccc(Cl)c(O)c3)CC2)c2nc(C#N)ccc21` : reported IC50 = 2500

What the record says about `Cn1c(=O)c([N+](=O)[O-])c(N2CCN(C(C)(C)c3ccc(F)cc3)CC2)c2nc(C#N)ccc21` : IC50 is 1600

Looking up `Cn1c(=O)c(C(=O)C(F)(F)F)c(N2CCN(C(c3ccc(F)cc3)c3ccc(F)cc3)CC2)c2ncccc21` , I found its IC50 recorded as 230000

Field IC50 (entry `Cn1c(=O)c([N+](=O)[O-])c(N2CCN(C(c3ccccc3)c3ccccc3)CC2)c2nc(C#N)ccc21` ) reads 9900

For reference, reported IC50 for `Cc1cccc(CN2CCN(c3c(C#N)c(=O)n(C)c4ccc(Cl)nc34)CC2)c1O` stands at 1800

Measured IC50, Cn1c(=O)c(C#N)c(N2CCN(C(c3ccccc3)c3ccccc3O)CC2)c2ncccc21 (stereo not shown) : 1300

GET /value?item= Cn1c(=O)c(C#N)c(N2CCN(C(c3ccccc3)c3ccc(F)cc3)CC2)c2nc(Br)ccc21 (racemic) &field=IC50 returns 1900

Item: `Cn1c(=O)c(C#N)c(N2CCN(Cc3cccc4c3NCC4)CC2)c2nc(Cl)ccc21` | IC50: 1200

# IC50 (compound: CC(c1ccc(F)cc1)N1CCN(c2c([N+](=O)[O-])c(=O)n(C)c3ccc(C#N)nc23)CC1 (single isomer, unassigned) [Example 44] ) is 370

Record C#CCn1c(=O)c([N+](=O)[O-])c(N2CCN(C(C)c3ccc(F)cc3)CC2)c2nc(C#N)ccc21 (single isomer, unassigned) [Example 137] . Reported IC50: 1500

The reported value for C#CCn1c(=O)c([N+](=O)[O-])c(N2CCN(C(CC)c3ccc(F)cc3)CC2)c2nc(C#N)ccc21 (single isomer, unassigned) [Example 140] in terms of IC50 is 2700

Short answer for COc1ccccc1C(c1ccc(F)cc1)N1CCN(c2c(C#N)c(=O)n(C)c3ccc(Br)nc23)CC1 (single isomer, unassigned) [Example 14] : IC50 was 4700
